- System: 171881-019-R-J1-PDC tumor spheroids, viability
- METHOD: Anticancer human tumor 171881-019-R-J1-PDC patient-derived invasive breast carcinoma cell line growth inhibition [GQUAD]
- ASSAY_CONDITIONS: second compound 0.1 µM; first compound 0.00999 µM; stronger effect = lower value; spheroids with HUVEC and MSC
Binned viability, T/C; ranges: bin A (below 70%), bin B (70% to below 90%), bin C (90% or more)

CC[C@@]1(O)C(=O)OCc2c1cc1n(c2=O)Cc2cc3c(CN(C)C)c(O)ccc3nc2-1 + Cc1cnc(CNC(=O)c2c(=O)c3ccc(N4CCCN(C)CC4)nc3n3c2sc2ccccc23)cn1	bin B

We now examine a further molecule.
q: Tag the class for CCc1c2c(nc3ccc(O)cc13)-c1cc3c(c(=O)n1C2)COC(=O)[C@]3(O)CC + CN(C)c1ccc(Nc2c3ccc(NC(=O)CCN4CCCC4)cc3nc3cc(NC(=O)CCN4CCCC4)ccc23)cc1
a: bin A

* * *

- Tested on: 171881-019-R-J1-PDC tumor spheroids, viability
- METHOD: Anticancer human tumor 171881-019-R-J1-PDC cell line growth inhibition [GQUAD];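 note: spheroids exposed to compounds for 7 days; 100% = DMSO vehicle control viability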
- ASSAY_CONDITIONS: second compound 3.16 µM; first compound 10 µM; stronger effect = lower value; spheroids with HUVEC and MSC
VALUE_TYPE: viability, T/C

// worked examples, viability, T/C included
C=CC(=O)N1CCN(c2nc(=O)n(-c3c(C)ccnc3C(C)C)c3nc(-c4c(O)cccc4F)c(F)cc23)C(C)C1 (stereo not given) + Cc1[nH]c2ccc(F)cc2c1-c1nc2c3cccnc3c3ncccc3c2[nH]1	16%
CC1COCCN1c1cc(-c2ccnn2C)c2ccnc(-c3ccn[nH]3)c2n1 (stereo not given) + CN(C)c1ccc(Nc2c3ccc(NC(=O)CCN4CCCC4)cc3nc3cc(NC(=O)CCN4CCCC4)ccc23)cc1	0.14%
COc1cc(C2c3cc4c(cc3C(OC3OC5COC(C)OC5C(O)C3O)C3COC(=O)C23)OCO4)cc(OC)c1O (stereo not given) + Cc1[nH]c2ccc(F)cc2c1-c1nc2c3cccnc3c3ncccc3c2[nH]1	11.5%
C#Cc1c(F)ccc2cc(O)cc(-c3ncc4c(N5CC6CCC(C5)N6)nc(OCC56CCCN5CC(F)C6)nc4c3F)c12 (stereo not given) + CN(C)c1ccc(Nc2c3ccc(NC(=O)CCN4CCCC4)cc3nc3cc(NC(=O)CCN4CCCC4)ccc23)cc1	0.1%
CC(=O)O[C@H]1C(=O)[C@@]2(C)[C@H]([C@H](OC(=O)c3ccccc3)[C@]3(O)C[C@H](OC(=O)[C@H](O)[C@@H](NC(=O)c4ccccc4)c4ccccc4)C(C)=C1C3(C)C)[C@]1(OC(C)=O)CO[C@@H]1C[C@@H]2O + Cc1cnc(CNC(=O)c2c(=O)c3ccc(N4CCCN(C)CC4)nc3n3c2sc2ccccc23)cn1	49.9%
C=CC(=O)N1CCN(c2nc(=O)n(-c3c(C)ccnc3C(C)C)c3nc(-c4c(O)cccc4F)c(F)cc23)C(C)C1 (stereo not given) + Cc1cnc(CNC(=O)c2c(=O)c3ccc(N4CCCN(C)CC4)nc3n3c2sc2ccccc23)cn1	68.9%
O=c1[nH]cc(F)c(=O)[nH]1 + CN(C)c1ccc(Nc2c3ccc(NC(=O)CCN4CCCC4)cc3nc3cc(NC(=O)CCN4CCCC4)ccc23)cc1	2.05%
COc1ccc([C@@H](O)c2cc(-c3ncnc4cc(N5CCOCC5)ccc34)c(F)cc2Cl)nn1 + CN(C)c1ccc(Nc2c3ccc(NC(=O)CCN4CCCC4)cc3nc3cc(NC(=O)CCN4CCCC4)ccc23)cc1	0.23%
CC1COCCN1c1cc(-c2ccnn2C)c2ccnc(-c3ccn[nH]3)c2n1 (stereo not given) + Cc1[nH]c2ccc(F)cc2c1-c1nc2c3cccnc3c3ncccc3c2[nH]1	4.34%

q: Quick check: viability, T/C of CC(C)n1c(=O)n(C)c2cnc3cc(F)c(-c4ccc(OCCCN5CCCCC5)nc4)cc3c21 + CN(C)c1ccc(Nc2c3ccc(NC(=O)CCN4CCCC4)cc3nc3cc(NC(=O)CCN4CCCC4)ccc23)cc1 ?
a: 0.15%

* * *

viability, T/C listing for selected compounds.
- Tested on: 171881-019-R-J1-PDC tumor spheroids, viability
- METHOD: Anticancer human tumor 171881-019-R-J1-PDC cell line growth inhibition [GQUAD];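 note: spheroids exposed to compounds for 7 days; 100% = DMSO vehicle control viability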
- ASSAY_CONDITIONS: second compound 0.316 µM; first compound 0.1 µM; stronger effect = lower value; spheroids with HUVEC and MSC
# number only, unit % dropped from output

CCCS(=O)(=O)Nc1ccc(F)c(C(=O)c2c[nH]c3ncc(-c4ccc(Cl)cc4)cc23)c1F + Cc1cnc(CNC(=O)c2c(=O)c3ccc(N4CCCN(C)CC4)nc3n3c2sc2ccccc23)cn1	78.8
COc1ncnc(C2CC2)c1-c1ncc2cnn(Cc3ccc(-c4nc(C(F)(F)F)cn4C(C)C)cc3)c2n1 + Cc1[nH]c2ccc(F)cc2c1-c1nc2c3cccnc3c3ncccc3c2[nH]1	74.2
C=CCn1c(=O)c2cnc(Nc3ccc(N4CCN(C)CC4)cc3)nc2n1-c1cccc(C(C)(C)O)n1 + Cc1[nH]c2ccc(F)cc2c1-c1nc2c3cccnc3c3ncccc3c2[nH]1	65.4

q: Quick check: viability, T/C of CC(C)n1c(=O)n(C)c2cnc3cc(F)c(-c4ccc(OCCCN5CCCCC5)nc4)cc3c21 + Cc1[nH]c2ccc(F)cc2c1-c1nc2c3cccnc3c3ncccc3c2[nH]1 ?
a: 93.2

q: Quick check: viability, T/C of COc1cccc2c1C(=O)c1c(O)c3c(c(O)c1C2=O)CC(O)(C(=O)CO)CC3OC1CC(N)C(O)C(C)O1 (stereo not given) + Cc1[nH]c2ccc(F)cc2c1-c1nc2c3cccnc3c3ncccc3c2[nH]1 ?
a: 56.4

* * *

- Test system: 171881-019-R-J1-PDC tumor spheroids, viability
- METHOD: Anticancer human tumor 171881-019-R-J1-PDC cell line growth inhibition [GQUAD];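 note: spheroids exposed to compounds for 7 days; 100% = DMSO vehicle control viability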
- ASSAY_CONDITIONS: second compound 3.16 µM; first compound 10 µM; stronger effect = lower value; spheroids with HUVEC and MSC
Just a reminder that ties go to -1: only viability, T/C strictly below 10% counts as 1.

CC(C)(O)C1CCC(Nc2ccc3ncc(-c4cccc(C(F)(F)F)c4)n3n2)CC1 (stereo unspecified) + Cc1cnc(CNC(=O)c2c(=O)c3ccc(N4CCCN(C)CC4)nc3n3c2sc2ccccc23)cn1	1
C#Cc1c(F)ccc2cc(O)cc(-c3ncc4c(N5CC6CCC(C5)N6)nc(OCC56CCCN5CC(F)C6)nc4c3F)c12 (stereo unspecified) + Cc1cnc(CNC(=O)c2c(=O)c3ccc(N4CCCN(C)CC4)nc3n3c2sc2ccccc23)cn1	-1
C=CC(=O)N1CCN(c2nc(=O)n(-c3c(C)ccnc3C(C)C)c3nc(-c4c(O)cccc4F)c(F)cc23)C(C)C1 (stereo unspecified) + CN(C)c1ccc(Nc2c3ccc(NC(=O)CCN4CCCC4)cc3nc3cc(NC(=O)CCN4CCCC4)ccc23)cc1	1

q: I'd appreciate it if you could check whether Nc1ccn(C2OC(CO)C(O)C2(F)F)c(=O)n1 (stereo unspecified) + Cc1cnc(CNC(=O)c2c(=O)c3ccc(N4CCCN(C)CC4)nc3n3c2sc2ccccc23)cn1 has viability, T/C smaller than 10%.
a: -1

q: I'd appreciate it if you could check whether C=CCn1c(=O)c2cnc(Nc3ccc(N4CCN(C)CC4)cc3)nc2n1-c1cccc(C(C)(C)O)n1 + Cc1cnc(CNC(=O)c2c(=O)c3ccc(N4CCCN(C)CC4)nc3n3c2sc2ccccc23)cn1 has viability, T/C smaller than 10%.
a: -1

q: I'd appreciate it if you could check whether COc1ncnc(C2CC2)c1-c1ncc2cnn(Cc3ccc(-c4nc(C(F)(F)F)cn4C(C)C)cc3)c2n1 + CN(C)c1ccc(Nc2c3ccc(NC(=O)CCN4CCCC4)cc3nc3cc(NC(=O)CCN4CCCC4)ccc23)cc1 has viability, T/C smaller than 10%.
a: 1

* * *

- Tested on: 171881-019-R-J1-PDC tumor spheroids, viability
- METHOD: Anticancer human tumor 171881-019-R-J1-PDC cell line growth inhibition [GQUAD];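 note: spheroids exposed to compounds for 7 days; 100% = DMSO vehicle control viability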
- ASSAY_CONDITIONS: second compound 10 µM; first compound 10 µM; stronger effect = lower value; spheroids with HUVEC and MSC
VALUE_TYPE: viability, T/C (%)
# number only, unit % dropped from output

COc1cccc2c1C(=O)c1c(O)c3c(c(O)c1C2=O)CC(O)(C(=O)CO)CC3OC1CC(N)C(O)C(C)O1 (stereo not drawn) + Cc1[nH]c2ccc(F)cc2c1-c1nc2c3cccnc3c3ncccc3c2[nH]1	0.93
O=C(c1cc(Cc2n[nH]c(=O)c3ccccc23)ccc1F)N1CCN(C(=O)C2CC2)CC1 + Cc1cnc(CNC(=O)c2c(=O)c3ccc(N4CCCN(C)CC4)nc3n3c2sc2ccccc23)cn1	55.4

q: Quick check: viability, T/C of CC1COCCN1c1cc(C2(S(C)(=N)=O)CC2)nc(-c2ccnc3[nH]ccc23)n1 (stereo not drawn) + Cc1cnc(CNC(=O)c2c(=O)c3ccc(N4CCCN(C)CC4)nc3n3c2sc2ccccc23)cn1 ?
a: 16.2
